Subject of test: human β3 adrenergic receptor (Homo sapiens)
Construct: expressed in transfected cells; host or cells: CHO cells, stably transfected
Assay comment: Functional assay: cAMP production in CHO cells stably transfected with cloned β3-adrenergic receptor (LANCE TR-FRET)
Assay type: cell-based
Reported conditions: Table 1, read-out: Human β3 agonist functional activity
pEC50: −log10 of the molar value.
Would you mind telling me the reported pEC50 of each entry?

Below are worked cases with known answers.
{"Compound": "O[C@H](c1ccccc1)[C@H]1CC[C@@H](Cc2ccc3nc(CCn4ncc5ccccc54)[nH]c3c2)N1", "Measured value": "7.00 to 7.96"}
{"Compound": "CCc1nc2ccccc2n1CCc1nc2ccc(C[C@@H]3CC[C@H]([C@H](O)c4ccccc4)N3)cc2[nH]1", "Measured value": "6.00 to 7.00"}
{"Compound": "OC(c1ccccc1)C1CCC(Cc2ccc3nc(CCCn4cccn4)[nH]c3c2)N1 (stereo not shown)", "Measured value": "6.00 to 7.00"}
{"Compound": "O=C(O)c1cccc(-c2nc3ccc(C[C@@H]4CC[C@H]([C@H](O)c5cccnc5)N4)cc3[nH]2)c1", "Measured value": "6.00 to 7.00"}
{"Compound": "Cc1nn(-c2ccccc2)c(C)c1CCc1nc2ccc(C[C@@H]3CC[C@H]([C@H](O)c4ccccc4)N3)cc2[nH]1", "Measured value": "6.00 to 7.00"}

// each compound listed below needs its pEC50
1. Cc1nc2c(s1)CCC2c1nc2ccc(C[C@@H]3CC[C@H]([C@H](O)c4ccccc4)N3)cc2[nH]1 (stereo partly shown)
2. O=C1c2ccccc2C(=O)N1Cc1nc2ccc(C[C@@H]3CC[C@H]([C@H](O)c4ccccc4)N3)cc2[nH]1

Result block:
1: 7.00 to 7.96; 2: 6.00 to 7.00

* * *

Subject of test: human β3 adrenergic receptor (Homo sapiens, UniProt P13945)
Construct: expressed in transfected cells; host or cells: CHO cells, stably transfected
Sequence (P13945 whole entry): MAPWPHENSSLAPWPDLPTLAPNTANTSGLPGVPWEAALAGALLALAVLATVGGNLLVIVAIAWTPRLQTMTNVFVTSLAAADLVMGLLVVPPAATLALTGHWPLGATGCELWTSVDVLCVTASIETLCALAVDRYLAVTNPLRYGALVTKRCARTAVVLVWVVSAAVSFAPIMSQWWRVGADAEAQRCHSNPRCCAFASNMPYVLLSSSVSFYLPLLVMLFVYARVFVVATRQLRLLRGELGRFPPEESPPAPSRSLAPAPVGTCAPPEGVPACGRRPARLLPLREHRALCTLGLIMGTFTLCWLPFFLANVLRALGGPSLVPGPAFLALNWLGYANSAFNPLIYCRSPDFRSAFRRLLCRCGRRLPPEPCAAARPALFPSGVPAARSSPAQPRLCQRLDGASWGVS
Assay comment: Functional assay: cAMP production in CHO cells stably transfected with cloned β3-adrenergic receptor (LANCE TR-FRET)
Format: cell-based
Reported conditions: Table 2, read-out: Human β3 agonist functional activity
pEC50: −log10 of the molar value.
Would you mind telling me the reported pEC50 of each entry?

{"Molecule": "Cc1nc2c(s1)CCC2c1nc2ccc(C[C@@H]3CC[C@H]([C@H](O)c4ccccc4)N3)cc2n1C (single isomer, unassigned) [Example 43]", "Subject of test": "human β3 adrenergic receptor (Homo sapiens, UniProt P13945)", "Measured value": "5.52 to 6.00"}

Now for the molecule whose pEC50 we want.
Query block: Hello, I am looking for reported pEC50 with human β3 adrenergic receptor (Homo sapiens, UniProt P13945) for Cc1nc2c(s1)CCC2c1nc2ccc(C[C@@H]3CC[C@H]([C@H](O)c4ccccc4)N3)cc2n1C (single isomer, unassigned) [Example 44] . Could you help?
Result block: 5.52 to 6.00

* * *

Subject of test: human β3 adrenergic receptor (Homo sapiens)
Construct: expressed in transfected cells; host or cells: CHO cells, stably transfected
Assay comment: Functional assay: cAMP production in CHO cells stably transfected with cloned β3-adrenergic receptor (LANCE TR-FRET)
Assay type: cell-based
Reported conditions: Table 3, read-out: Human β3 agonist functional activity
Observable: EC50

{"Compound": "Cc1nc2c(s1)CCC2c1nc2cc(C[C@@H]3CC[C@H]([C@H](O)c4ccccc4)N3)ccc2n1C (single isomer, unassigned) [Example 45]", "Measured value": "101 to 1000 nM"}

Now for the compound whose EC50 we want.
Query block: Hello, I am looking for reported EC50 with human β3 adrenergic receptor (Homo sapiens) for Cc1nc2c(s1)CCC2c1nc2cc(C[C@@H]3CC[C@H]([C@H](O)c4ccccc4)N3)ccc2n1C (single isomer, unassigned) [Example 46] . Could you help?
Result block: 1000 to 3000 nM

Value source: patent US8748433B2
